# Test system: LOX IMVI melanoma
# Assay Protocol: NCI-60 one-dose screen, 48 h
# Condition Info: 10 µM unless noted
About 83,000 compounds went through this panel and 20% of them were active in at least one assay; those are over-represented in the sample as a whole. The source made the active and inactive calls. Rule for the calls: active = growth percent below 10; inactive = the rest.
Select the correct class. Options are active, inactive and nothing else.

COc1ccc(/C=C2\C(=O)N(C(=O)c3csc(NC(C)=O)n3)N=C2C)cc1 ... inactive
NC(=O)c1c(NC(=O)c2ccc(OCC3CCCO3)cc2)sc2c1CCCC2 (configuration not stated) ... inactive
O=C(Nc1ccc(I)cc1)c1cccc([N+](=O)[O-])c1O ... active
CCN(Cc1ccc(CN(CC)C(=O)C(Br)Br)cc1)C(=O)C(Br)Br ... inactive

Short answer needed: outcome of this test for `O=C(O)c1cccc([N+](=O)[O-])c1/C=C/c1ccccc1` ? inactive

Short answer needed: outcome of this test for `CC/C(=C(\c1ccc(O)cc1)c1ccc(OCCN(C)CCN(C)C(=O)CCC(=O)c2c(C)[nH]c(/C=C3\N=C(c4ccc[nH]4)C=C3OC)c2C)cc1)c1ccccc1` ? inactive

Short answer needed: outcome of this test for COc1cc(C2C=C(C)N=C3SC=CN32)cc(OC)c1OC (configuration not stated) ? inactive

Short answer needed: outcome of this test for `Nc1ccccc1C#C/C=C\C#Cc1cccc(O)c1` ? inactive

Short answer needed: outcome of this test for Nc1nc(N)c2nc(CNc3ccc(C(=O)CC(CCC(=O)O)C(=O)O)cc3)cnc2n1 (configuration not stated) ? inactive

Short answer needed: outcome of this test for `COc1ccc(NC(=S)/N=c2\oc3c(OC)cccc3cc2-c2cc3ccccc3[nH]2)cc1` ? inactive

Short answer needed: outcome of this test for `COC(=O)CC/C(C)=N\Nc1ccc([N+](=O)[O-])cc1` ? inactive

Short answer needed: outcome of this test for CN(C)c1ccc(C2CC(c3ccccc3)=NN2/C=C2\SC(=O)NC2=O)cc1 (configuration not stated) ? inactive

Short answer needed: outcome of this test for `CC/C=C\C/C=C\C[C@H](O)C/C=C1/C(=O)C=C[C@H]1C/C=C\CCC(=O)OC` ? active

Short answer needed: outcome of this test for COc1cccc(C2CC(=O)Nc3c2c(C)nn3-c2nc3ccccc3[nH]2)c1OC (configuration not stated) ? inactive

Short answer needed: outcome of this test for COc1cc(C2C=C(C)N=C3SC(C)=NN32)cc(OC)c1OC (configuration not stated) ? inactive

Short answer needed: outcome of this test for `COc1ccc(S(=O)(=O)N2CCN(c3cc4c(cc3F)c(=O)c(C(=O)O)cn4C3CC3)CC2)c(OC)c1` ? inactive

###

# System: 786-0 renal
# Assay Protocol: NCI-60 one-dose screen, 48 h
# Condition Info: 10 µM unless noted
# Description: Cells are grown in 96 well plates and exposed to the test compound for 48 hours. Compounds are tested at a single concentration, which is 10^-5 M for most compounds. The reported endpoint is percent growth (GI% or GIPRCNT), where numbers from 0 - 100% represent growth inhibition, and numbers from -100% - 0 represent cell death. For example, a value of 40 represents 60% growth inhibition. A value of 0 means no net growth occurred over the course of the experiment. […]
This is part of a sample that, as a whole, favours compounds with a hit. Of some 83,000 tested, about 20% had one in any assay. Active and inactive are the calls of the source. How the source made its calls: active means growth percent below 10; inactive means the rest.
Select the correct class. Options are active, inactive and nothing else.

Study these solved cases before continuing.
O=C(Nc1ccc(I)cc1)c1cc([N+](=O)[O-])ccc1O ... inactive
CNC(=O)Cc1nc(-c2cccc(NS(=O)(=O)c3c(F)cccc3F)c2F)c(-c2ccnc(Nc3ccccc3)n2)s1 ... inactive

Short answer needed: outcome of this test for CCC1CCc2nc3sc(C(=O)Nc4ccccc4C)c(N)c3cc2C1 (centres undefined) ? inactive

Short answer needed: outcome of this test for CCCCCCC[C@@H](O)CC(=O)N[C@H](CCCCN)C(=O)N[C@H](Cc1c[nH]c2ccccc12)C(=O)NC(CCCCN)C(=O)N[C@H](CC(C)C)C(=O)N[C@H](Cc1ccccc1)C(=O)N[C@H](CCCCN)C(=O)N[C@H](CCCCN)C(=O)N[C@H](CC(C)C)C(=O)N1CCCC1C(=O)N[C@H](CCCCN)C(=O)N[C@H](Cc1ccccc1)C(=O)N[C@H](CC(C)C)C(=O)N[C@H](Cc1c[nH]cn1)C(=O)N[C@H](CC(C)C)C(=O)N[C@H](C)C(=O)N[C@H](CCCCN)C(=O)N[C@H](CCCCN)C(=O)N[C@H](Cc1ccccc1)C(=O)O (some centres undefined) ? active
